// reported normalized RNA/DNA level without ligand (log10) per item
B1: library; a variant is named by its letters at N, in order (parent)
chain: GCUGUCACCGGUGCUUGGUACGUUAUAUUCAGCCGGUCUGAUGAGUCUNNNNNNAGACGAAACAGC

Variants of: B1
test details: normalized RNA/DNA level without ligand (relative to sTRSVctl = 100) (log10 (% of sTRSVctl)); HEK293T overexpressing SLC46A1; higher = less ribozyme self-cleavage, higher mRNA level
conditions used: without (6R,S)-folinic acid; ligand present: no
The reply should be a number, written without any unit.

In the examples that follow, each entry is paired with its recorded normalized RNA/DNA level without ligand (log10).
>>> df
   variant_notation  measured_result
0            AAUUUC             2.03
1            CCCGGU             2.02
2            CAUGGA             2.01
3            GUAGUU                2

normalized RNA/DNA level without ligand (log10) reported for this variant AACGAC : 2.02

normalized RNA/DNA level without ligand (log10) reported for this variant UGCGAU : 1.85

Hey, just so you know, these numbers are from the supplement of paper PMC6757056.
